Items are presented alongside their recorded % Positive.
system_under_test: T1, human Siglec-7 expressed on human cells (primary monocytes, dendritic cells, macrophages, NK cells, … (human, UniProt Q9Y286 19-467))
T1 construct: Endogenous receptor on cells; also called Siglec-7 receptor
assay_procedure: FACS, human primary monocytes, 10 ug/ml mAb
Please state the figure in %; there is no need to write the unit.

These recorded examples may help you get a feel for the data.
INSERT INTO results (binder, assay_endpoint, quantitative_result) VALUES
  ('anti-Siglec-7 antibody 2G1 (antibody, V domains shown, Variable domains assembled from FR and CDR entries; the printed VL FR1 looks shortened at its N-terminus; also called 2G11 (misprint in text)) VH: EVKLVESGGTLVKPGGSLKISCAASGFTFSNYDMSWVRQNPEKRLEWVATISSGGDYTYYPDIFKGRFTISRDDAKNALYLQMSSLRSEDTALYYCARHGYGNYDWYFDVWGAGATVTVSS VL: VLTQSPAIMSASPGEKVTMTCSANSSFIYMYWYQQKPGSSPRLLIFDTSNLASGVPIRFSGSGSGTSYSLTISRMEAEDTATYYCQQWSSSPLTFGGGTKLELK', '% Positive', 99.4),
  ('anti-Siglec-7 antibody 10G8 (antibody, V domains shown, Variable domains assembled from FR and CDR entries) VH: EVKLVEFGGALVKPGGSLKLSCAALGFTFSTYAMFRVRQTPEKREEGVASISSGGRYTYYPDSAKDRHPIFRDNARNTLYLQMSSLRSKDTAMYYCVRHSYGSSYWYLDVWGAGTTVTVSS VL: DIQMTQFPATLSGTPGDRVZLSRRASQSIREYLHWYQQKSHESPRLZIKFASQSICGIPSRFSGSGSGSDFTLSINTVEPEDVGVYYCQKAHNFPYTFGGGTKLEIK', '% Positive', 99.1),
  ('anti-Siglec-7 antibody 7F12 (antibody, V domains shown, Variable domains assembled from FR and CDR entries) VH: QVQLQQSGSELRSPGSSVKLSCKDFDSEVFPITYMNWVRQKPGHGFEWIGDILPSIGRTMYGEKFEDKATLDADTVSNTAYLELNSLTSEDSAIYYCARSEGYLLAYWGQGTLVTVSA VL: DVLMTQTPLSLPVSLGDQASISCRSSQSLVHSTGNTYLHWYLQKPGQSPKLLIYKVSNRFSGVPDRFSGSGAGTDFTLKISRVEAEDLGVYFCSQNTHVPYTFGGGTKLEIK', '% Positive', 99.3),
  ('anti-Siglec-7 antibody 4E3 (antibody, V domains shown, VL FR1 there holds a Z); also called S7-4E3; mAb S7-4E3) VH: EVQLVESGGALVKPGGSLKISCAVSGFIFSNYDMSWVRQNPEKRLEWVATISSGGGYTYYPDSVKGRFTISRDNAKNALYLQMSSLRSEDTALYYCTRHGYGNYDWYFDVWGAGATVTVSS VL: QIVLTQSPAILSASPGEKVTMTCSANSSFTYMYWYQQKPGSSPRLLIFDTSNLASGVPIRFSGSGSGTSYSLTISRMEAEDTATYYCQQWSSSPLTFGAGTKLELK', '% Positive', 98.6);

anti-Siglec-7 antibody 1A12 (antibody, V domains shown, also called 1Al2) VH: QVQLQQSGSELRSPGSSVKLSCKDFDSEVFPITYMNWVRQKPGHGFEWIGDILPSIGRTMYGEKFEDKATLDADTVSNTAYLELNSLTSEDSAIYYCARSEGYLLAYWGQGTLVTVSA VL: DVZMTQTPLSLPVSLGDQASISCRSSQSLVHSTGNTYLHWYLQKPGQSPKLLIYKVSNRFSGVPDRFSGSGAGTDFTLKISRVEAEDLGVYFCSQNTHVPYTFGGGTKLEIK has a reported % Positive of 99.3

% Positive for anti-Siglec-7 antibody 4A1 (antibody, V domains shown, Variable domains assembled from FR and CDR entries) VH: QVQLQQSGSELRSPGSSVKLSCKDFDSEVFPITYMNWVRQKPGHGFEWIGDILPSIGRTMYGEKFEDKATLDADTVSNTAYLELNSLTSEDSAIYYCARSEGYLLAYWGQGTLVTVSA VL: DVVMTQTPLSLPVSLGDQASISCRSSQSLVHSTGNIYLHWYLQKPGQSPKLLIYKVSNRFZGVPDRFSGSGSGTDFTLKISRVEAEDLGVYFCSQNTHVPYTFGGGTKLEIK is 99.4

The binder listed as anti-Siglec-7 antibody 2G4 (antibody, V domains shown, Variable domains assembled from FR and CDR entries) VH: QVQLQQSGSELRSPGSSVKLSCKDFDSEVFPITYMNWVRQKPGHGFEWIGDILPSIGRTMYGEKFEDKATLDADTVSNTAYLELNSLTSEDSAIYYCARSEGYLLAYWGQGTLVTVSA VL: DIQMTQSLSYLSVSLGGRVTITCKASDHINNWLAWYQQKPGNAPRLLISGATSLETGFPSRFSGSGSGKDYTLSITSLQTEDVATYYCHQYWNTPYTFGGGTRLEIK has a reported % Positive of 99.3

# % Positive (binder: anti-Siglec-7 antibody 10B5 (antibody, V domains shown, that light chain holds several Z and differs in its CDRs from S7-10B5.1 / 10B5L1; also called S7-10B5; mAb S7-10B5) VH: QVHLQQSGPELVKPGASVKISCKASGYAFTNCWMNWVRQRPGKGLDWIGRIFPGNGHTNYSGKFKDKATLTEDKSSSTAYMQLSSLTSEDSAVYFCARDYSDYYFDYWGQGTTLTVSS VL: DVQMTQTTSSLSASLGDRVTISCRASQDINTYLNWYQQKPDGTVKLLIYYTSRLHSGVPSRFSGSGSGTDYSLTISNLEQEDIATYFCQQGNTLPWTFGGGTKLEIK ) is 99.2

// field: % Positive; key: anti-Siglec-7 antibody 4D7 (antibody, V domains shown, Variable domains assembled from FR and CDR entries) VH: QVQLQQSGAELVKPGASVKLSCKTSGYTFTNYWINWVKQRPGQGLEWIGNIYSGSSRTNYNEKFKSKATLTVDTSSSTAYMQLSSLTSDDSAVYYCAREGLRAMDYWGQGTSVTVSS VL: NZMTQFQKFMSTSVGDRVSLTCKASQKVGTNVAGFQQKPGHSPKAGIYSASTRHRGVQDRFTARGLGSDFILPITTZQLEDLAEYZCHQGNSVQYTFGGGTKLEIK ; value = 90.5

Looking up anti-Siglec-7 antibody 7E11 (antibody, V domains shown, Variable domains assembled from FR and CDR entries) VH: QVQLKQSGPVLVAPSQSLSITCTVSGFSLSNYGVHWVRQFPGKGLEWLGVIWAGGITNYNSVLMSRLSISKDNSKSQVFLKMNSLQTDDTAMYYCAKQGGTSFSYWGQGTLVTVSA VL: DIQMTQSPASQSASLGESVTITCLASQTIGTWLAWYQQKPGKSPQLLIYAATSLADGVPSRFSGSGSGTKFSFKISSLQAEDFVSYYCQQLYSTPYTFGGGTKLEIK , I found its % Positive recorded as 93.3
